These measurements were taken from patent US20040236084A1.

Counter-ions that a name gives are not always drawn.
melting point by entry:

>>> meas_value("CCc1nc2cnc(Nc3ccc(N4CCNCC4)cn3)nc2n(C2CCCC2)c1=O")
"203 to 208 °C (dec.)"
>>> meas_value("O=C1N(Cc2ccccc2)Cc2cnc(Nc3ccc(N4CCCCC4)cn3)nc2N1C1CCCC1")
"194 to 196 °C"
>>> meas_value("Clc1nc(Nc2ccc(N3CCOCC3)nc2)nc(NC2CCCC2)n1 [Example 14E]")
"218 to 219 °C"
>>> meas_value("Cc1nc2cnc(Nc3ccc(N4CCNCC4)cn3)nc2n(C2CCCC2)c1=O")
"221 to 223 °C"
>>> meas_value("CCOC(=O)c1cnc(Nc2ccc(N3CCNCC3)cn2)nc1NC1CCCC1 (as salt: hydrochloride)")
"180 °C"

Asked: Entry CNc1nc(Nc2ccc(N3CCOCC3)cc2)nc(NC2CCCC2)n1 [Example 14D] : reported melting point = ?
Given back: 218 to 219 °C

Asked: Give the measured melting point of "COc1ccc2cnc(Nc3ccc(N4CCNCC4)cn3)nc2c1C1CCCC1" .
Given back: > 200 °C
